Origin of measurements: patent US20100267561A1

Assign Plant response rating, Pigweed to each entry below.
system: pigweed (Amaranthus retroflexus); assay: Test A pre-/postemergence plant response; assay type: in vivo; conditions: Preemergence, 125 g ai/ha; 0 to 100 scale (0 no effect, 100 complete control)
Give bare numbers.

Solved cases below.
{"columns": ["compound.string", "Plant response rating, Pigweed"],
 "data": [
  ["COc1nn(C)c(=O)c(-n2nc(-c3ccc(Br)cc3)cc2C)c1O", 0],
  ["CCc1cc(-c2ccc(C(F)(F)F)cc2)nn1-c1c(O)c(C)nn(C)c1=O", 0]
]}

I have this molecule here, Cc1cc(-c2ccc(Cl)cc2)nn1-c1c(OC(=O)N(C)C)cnn(C)c1=O , and I need its recorded Plant response rating, Pigweed.
0
